Biological target: human Claudin18.2 (human)
Test: cell-based or functional assay
Reported CDC EC50 values for a set of binders

Use these answered entries as a reference point.
[
  {
    "Binder": "chimeric 246B5F2 (antibody, human IgG1, kappa, V domains shown, chimeric, human IgG1/kappa constant regions; also called 246B5F2-Chimeric) VH: EVMLVESGGGLMKPGGSLKLSCAASEFTFSNYAMSWVRQTPEKRLEWVATISSGRSSTYYPDSVKGRFTISRDNAKNTLYLQMSSLRSEDTAMYYCAGLGRGNAMEYWGQGTSVTVSS VL: DIVMTQSPSSLTVTAGEKVTLSCKSSQSLLNSGNQKNYLTWYQQKPGQPPKLLIYWASTRESGVPDRFTGSGSGTDFILTINSVQAEDLAVYYCQNAYSYPFTFGSGTKLEIKR",
    "Readout value": "0.274 µg/mL"
  },
  {
    "Binder": "chimeric 222B6G5 (antibody, human IgG1, kappa, V domains shown, chimeric, human IgG1/kappa constant regions) VH: QTYLQQSGAELVRSGASVKMSCKASGYTFTSYNIHWVKQTPGQGLEWIGYISPGNGGTYYNLKFKDKATLTTATSSSTAYMQISSLTSEDSAVYFCATGRGFAYWGQGTLVTVSA VL: DIVMTQSPSSLTVTPGEKVTMSCKSSQSLFNSGNQKNYLIWYQQKPGQPPKLLIYRASTRDSGVPDRFTGSGSGTDFTLTISNVQAEDLAVYYCQNDYSYPLTFGAGTKLELKR",
    "Readout value": "0.205 µg/mL"
  }
]

Attention now shifts to the item below.
Qu. Return CDC EC50 for the following binder: chimeric 418D2F9 (antibody, human IgG1, kappa, V domains shown, chimeric, human IgG1/kappa constant regions) VH: DVQLVESGGGLVQPGGSRKLSCAASGFTFSSFGMHWVRQAPEKGLEWVAYINTGSSTIYYADTVKGRFTISRDNPKNTLFLQMTSLRSEDTAMYYCARIYYGNSFVYWGQGTLVTVSA VL: DIVMTQSPSSLTVTAGEKVTMSCKSSQSLLNSGNQKNYLTWYQQKPGQPPKLLIYWASTRESGVPDRFTGSGSGTDFTLTISSVQAEDLAVYYCQNDYSYPLTFGAGTKLELKR
Ans. 69.9 µg/mL
